Tested on: PfAP2-HC AP2 domain (GST-tagged)
Assay protocol: gcPBM binding intensity (ln(normalized median fluorescence intensity)); higher = stronger DNA binding
In all, about 25,000 sequences were measured (“ln(normalized median fluorescence intensity)”: median about 9.7, highest 2% from about 11 on). This is one part of a sample in which the highest values are shown more often than they occur.
Please note: yes (1) applies when gcPBM binding intensity (ln) is 10 or greater, and no (0) applies otherwise.

1. TCATTTTACAGATGTGCATGTGAATCAATCTATTTA [TGCATGCA_site787]    no (0)
2. AATAGAATAATCCTTACACACACACCCACACGAATA [CACACA_site8053]    yes (1)
3. AATCCTTACGGACACACACACACGAATAAATAAAAA [CACACA_site4422]    yes (1)
4. AACATAATTAAAAATTGTACAGAATTTCAATCGAAA [XGTACX_site7542]    no (0)
5. TTTTTTACATCCATAAAACTTTTTCTCTTTTAAAAT [CACACA_negctrl_site1745]    no (0)
6. AATCCTTACGAACACACACACACGAATAAATAAAAA [CACACA_site6363]    yes (1)
7. TAGAATAATCCTTACACACACACACCCACGAATAAA [CACACA_site483]    yes (1)
8. TTTTTTTTTTGATGTTGTACATATATACTATATAAT [XGTACX_site1332]    no (0)
9. GAGTTTTAATGTAATAGTACTTTAATTATTATATAT [XGTACX_site4527]    no (0)
10. ATAATCCTTAGACACACACACACACGAATAAATAAA [CACACA_site6364]    yes (1)
11. GAAATATTTAGACACACACACAAACATATAAATATA [CACACA_site6980]    yes (1)
12. CCATTTACATTGTGAAGTACTAAAAAAAAATGTAGA [XGTACX_site7882]    no (0)
13. AAACAATTTAGACATACACACAAAAATAATATTATA [CACACA_site384]    yes (1)
14. ATAATCCTTGGACACACACACACACTAGTAAATAAA [CACACA_site4423]    yes (1)
